Test system: Yap1 mRNA
Test: Antisense inhibition of human Yap1 in SNU-449 cells by modified oligonucleotides, single dose (Example 5, RTS36584)
Format: cell-based
Settings: Table 50; Yap1 mRNA remaining as percent of untreated control (UT), SNU-449 cells, single dose
Strand notation (5' to 3'): a small letter for the sugar, then the base; units joined by * are phosphorothioate-linked, units joined directly phosphodiester-linked; [ ] holds rarer units or linkages, { } end groups; capitals alone tell only the bases. e = 2'-O-(2-methoxyethyl) (MOE); k = constrained ethyl (cEt); [5mC] = 5-methylcytosine; d = 2'-deoxy (DNA); m = 2'-O-methyl
Response field label takes Y when YAP1 (% UT) is strictly below 30 % UT and N in all other cases.

Task: In the record for 1198598 (antisense kA*kA*k[5mC]*dT*d[5mC]*dT*dT*dA*dT*dA*dT*dG*kG*kT*kT*eT) [Compound 1198598] , is YAP1 (% UT) less than 30 % UT?
Result: N

Task: In the record for 1197246 (antisense kA*kG*k[5mC]*dA*mC*dT*dT*dT*dT*dA*d[5mC]*dA*dT*kT*kA*kG) [Compound 1197246] , is YAP1 (% UT) less than 30 % UT?
Result: N

====

Test: Cynomolgus monkey tolerability, kidney and liver function markers (Example 34)
Settings: cynomolgus monkeys, 35 mg/kg subcutaneously, day 44
Parameter threshold = 70 IU/L. Response is 1 when GGT meets or exceeds it, else -1.

Task: Exam item: decide whether the reported GGT for 1198831 (CACTTTTACATTAGGA; chemically modified gapmer, further chemistry not given here) [compound 1198831] is at least 70 IU/L.
Result: -1

Task: Exam item: decide whether the reported GGT for 1198623 (CTAAGTAAGGTTTCCC; modified gapmer, further chemistry not given here) [compound 1198623] is at least 70 IU/L.
Result: -1

Task: Exam item: decide whether the reported GGT for 1198872 (TGTATGTCAGAAGAGT; chemically modified gapmer, further chemistry not given here) [compound 1198872] is at least 70 IU/L.
Result: 1

====

Reported IC50 values are given for each entry in this list.
Tested on: Yap1 mRNA
Test: Dose-dependent inhibition of human Yap1 in A-431 cells (Example 8, 10,000 cells per well, RTS4814)
Type: cell-based
Settings: A-431 cells, free uptake, approximately 48 hours, RTS4814; linear regression on log/linear plot
Strand notation (5' to 3'): a small letter for the sugar, then the base; units joined by * are phosphorothioate-linked, units joined directly phosphodiester-linked; [ ] holds rarer units or linkages, { } end groups; capitals alone tell only the bases. k = constrained ethyl (cEt); [5mC] = 5-methylcytosine; d = 2'-deoxy (DNA)
Write down the numeric answer in nM and omit the unit.

Examples with answers:
1075078 (antisense k[5mC]*kA*kA*d[5mC]*dT*dA*dT*dA*d[5mC]*dG*dG*dT*d[5mC]*k[5mC]*kA*kT) [compound 1075078]    100
1075207 (k[5mC]*kT*kA*dT*dT*dA*dA*dA*dT*dG*dA*dG*d[5mC]*kA*k[5mC]*k[5mC]; antisense) [compound 1075207]    100

Next, consider the following substance.
For record 1076486 (kG*kA*kA*dA*d[5mC]*dG*dA*dA*dA*d[5mC]*dG*dG*dG*kA*kA*kA; antisense) [compound 1076486] the listed IC50 is 100
